# system under test: HEK 293 GPR73 (prokineticin 1 receptor) expressing cells (Homo sapiens, UniProt Q8TCW9)
# Construct: expressed in transfected cells; host or cells: HEK 293
# Sequence (Q8TCW9 whole entry): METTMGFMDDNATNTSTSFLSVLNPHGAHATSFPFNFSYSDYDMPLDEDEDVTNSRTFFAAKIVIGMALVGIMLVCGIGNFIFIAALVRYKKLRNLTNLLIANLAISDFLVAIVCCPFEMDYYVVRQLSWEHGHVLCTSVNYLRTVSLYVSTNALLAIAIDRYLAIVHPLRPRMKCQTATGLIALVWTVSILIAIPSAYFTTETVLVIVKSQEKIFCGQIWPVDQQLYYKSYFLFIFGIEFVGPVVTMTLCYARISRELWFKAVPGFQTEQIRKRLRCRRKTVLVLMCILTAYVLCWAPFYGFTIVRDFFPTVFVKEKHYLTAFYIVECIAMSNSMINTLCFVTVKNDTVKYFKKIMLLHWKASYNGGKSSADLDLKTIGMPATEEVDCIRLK
# measurement description: PK1 functional assay: screening for PK1 antagonists on the FLIPR (calcium mobilization)
# Format: cell-based
# experimental conditions: HEK293, 10 μM compound, HEK 293 GPR73 cells, read-out: Ca^2+ Mobilization % Inh @10 μM
# Protocol: Screening Procedure for PK1 Antagonists on the Fluorometric Imaging Plate Reader (FLIPR) […] IC50 values were calculated using GraphPad Prism.
parameter: inhibition at 10 µM (%)
Answer format: numeric, % implied, no suffix.

Determine from records and report inhibition at 10 µM for N=C(N)NCCNc1nc(=O)n(Cc2ccccc2)c(=O)n1Cc1ccc([N+](=O)[O-])cc1
35

Identify inhibition at 10 µM associated with the compound COc1ccc(Cn2c(NCCNC(=N)NC(C)C)nc(=O)n(Cc3ccc(Cl)c(Cl)c3)c2=O)cc1
102

Please supply the value of reported inhibition at 10 µM for the item COc1ccc(Cn2c(NCCNC(=N)NC(=O)c3ccccc3)nc(=O)n(Cc3ccc(F)cc3)c2=O)cc1
97

Quote inhibition at 10 µM reported for COc1ccc(Cn2c(NCCNC(=N)Nc3ccc(C#N)cc3)nc(=O)n(Cc3ccc(F)cc3)c2=O)cc1 please.
100

Further cases:
# return recorded inhibition at 10 µM for entry COc1ccc(Cn2c(N[C@@H]3CCCC[C@H]3NC(=N)N)nc(=O)n(Cc3ccc(Cl)c(Cl)c3)c2=O)cc1
101

Given the compound COc1ccc(Cn2c(NCCNC(=N)Nc3ccccc3F)nc(=O)n(Cc3ccc(F)cc3)c2=O)cc1 , write its reported inhibition at 10 µM.
98

Give the measured inhibition at 10 µM for [H]/N=C(\N)NCCNc1nc(=O)n(Cc2ccc(OC(C)(C)C)cc2)c(=O)n1Cc1ccc(OC)cc1
99

* * *

# system under test: HEK 293 GPR73 (prokineticin 1 receptor) expressing cells (Homo sapiens)
# Construct: expressed in transfected cells; host or cells: HEK 293
# measurement description: PK1 functional assay: screening for PK1 antagonists on the FLIPR (calcium mobilization)
# Format: cell-based
# experimental conditions: 10 μM compound, HEK 293 GPR73 cells
Listed here: items and their measured Ca^2+ Mobilization % Inh @10 μM.

Solved entries:
Using known records, supply Ca^2+ Mobilization % Inh @10 μM for COc1ccc(Cn2c(NCCNC(=N)NCCc3ccccn3)nc(=O)n(Cc3ccc(F)cc3)c2=O)cc1
100%

Respond only with Ca^2+ Mobilization % Inh @10 μM recorded for COc1ccc(Cn2c(NCCNC(=N)N)nc(=O)n(CC3CCCC3)c2=O)cc1
74%

Specify reported Ca^2+ Mobilization % Inh @10 μM for the molecule shown: COc1ccc(Cn2c(NCCNC(=N)NCCc3ccccc3)nc(=O)n(Cc3ccc(Cl)c(Cl)c3)c2=O)cc1
88%

Quick one: give measured Ca^2+ Mobilization % Inh @10 μM for COc1ccc(Cn2c(NCCNC(=N)NC(=O)c3ccccc3)nc(=O)n(Cc3ccc(F)cc3)c2=O)cc1
97, 97%

Continuing:
Output Ca^2+ Mobilization % Inh @10 μM of COc1ccc(Cn2c(NCCONC(=N)N)nc(=O)n(Cc3ccccc3)c2=O)cc1
33%

* * *

# system under test: HEK 293 GPR73 (prokineticin 1 receptor) expressing cells (Homo sapiens, UniProt Q8TCW9)
# measurement description: PK1 functional assay: screening for PK1 antagonists on the FLIPR (calcium mobilization)
# experimental conditions: HEK 293 GPR73 cells, PK1 ligand at EC50, read-out: Ca^2+ Mobilization IC50
Catalogue of compounds with associated pIC50
// pIC50 is dimensionless: -log10 of concentration (M)

Report its pIC50 with HEK 293 GPR73 (prokineticin 1 receptor) expressing cells (Homo sapiens, UniProt Q8TCW9) as the test system: COc1ccc(Cn2c(N[C@@H]3CCCC[C@H]3NC(=N)N)nc(=O)n(Cc3ccc(Cl)c(Cl)c3)c2=O)cc1 [Cpd 47]
7.24

Pending compound:
Please respond with reported pIC50 (system HEK 293 GPR73 (prokineticin 1 receptor) expressing cells (Homo sapiens, UniProt Q8TCW9)) for COc1ccc(Cn2c(NCCNC(=N)NCCc3ccccn3)nc(=O)n(Cc3ccc(F)cc3)c2=O)cc1 [Cpd 105] .
7.05

* * *

# system under test: HEK 293 GPR73 (prokineticin 1 receptor) expressing cells (Homo sapiens)
# measurement description: PK1 functional assay: screening for PK1 antagonists on the FLIPR (calcium mobilization)
# experimental conditions: HEK 293 GPR73 cells, PK1 ligand at EC50, read-out: Ca^2+ Mobilization IC50
parameter: IC50 (nM)
The reply should be a number in nM, with the unit left off.

Report IC50, nothing else, for this compound: COc1ccc(Cn2c(NCCNC(=N)NCCc3ccccc3)nc(=O)n(Cc3ccc(Cl)c(Cl)c3)c2=O)cc1 [Cpd 65]
485

Next:
Name the recorded IC50 of the compound listed here: COc1ccc(Cn2c(NCCN(C(=N)N)c3ccccn3)nc(=O)n(Cc3ccc(F)cc3)c2=O)cc1 [Cpd 104]
11

Specify reported IC50 for the compound shown: [H]/N=C(\N)NCCNc1nc(=O)n(Cc2ccc(OC(C)(C)C)cc2)c(=O)n1Cc1ccc(OC)cc1 [Cpd 109]
129

Tell me its IC50 given COc1ccc(Cn2c(NCCNC(=N)Nc3ccccc3F)nc(=O)n(Cc3ccc(F)cc3)c2=O)cc1 [Cpd 118] as the entry.
6

Specify measured IC50 for COc1ccc(Cn2c(NCCNC(=N)N)nc(=O)n(CC3CCCC3)c2=O)cc1 [Cpd 124] .
1560

Origin of values: patent US7968710B2
